Values from PubChem BioAssay AID504339

- SUBJECT OF TEST: Lysine-specific demethylase 4A (Homo sapiens) (UniProt O75164)
- Sequence (O75164 whole entry, looked up, the tested form may be a part): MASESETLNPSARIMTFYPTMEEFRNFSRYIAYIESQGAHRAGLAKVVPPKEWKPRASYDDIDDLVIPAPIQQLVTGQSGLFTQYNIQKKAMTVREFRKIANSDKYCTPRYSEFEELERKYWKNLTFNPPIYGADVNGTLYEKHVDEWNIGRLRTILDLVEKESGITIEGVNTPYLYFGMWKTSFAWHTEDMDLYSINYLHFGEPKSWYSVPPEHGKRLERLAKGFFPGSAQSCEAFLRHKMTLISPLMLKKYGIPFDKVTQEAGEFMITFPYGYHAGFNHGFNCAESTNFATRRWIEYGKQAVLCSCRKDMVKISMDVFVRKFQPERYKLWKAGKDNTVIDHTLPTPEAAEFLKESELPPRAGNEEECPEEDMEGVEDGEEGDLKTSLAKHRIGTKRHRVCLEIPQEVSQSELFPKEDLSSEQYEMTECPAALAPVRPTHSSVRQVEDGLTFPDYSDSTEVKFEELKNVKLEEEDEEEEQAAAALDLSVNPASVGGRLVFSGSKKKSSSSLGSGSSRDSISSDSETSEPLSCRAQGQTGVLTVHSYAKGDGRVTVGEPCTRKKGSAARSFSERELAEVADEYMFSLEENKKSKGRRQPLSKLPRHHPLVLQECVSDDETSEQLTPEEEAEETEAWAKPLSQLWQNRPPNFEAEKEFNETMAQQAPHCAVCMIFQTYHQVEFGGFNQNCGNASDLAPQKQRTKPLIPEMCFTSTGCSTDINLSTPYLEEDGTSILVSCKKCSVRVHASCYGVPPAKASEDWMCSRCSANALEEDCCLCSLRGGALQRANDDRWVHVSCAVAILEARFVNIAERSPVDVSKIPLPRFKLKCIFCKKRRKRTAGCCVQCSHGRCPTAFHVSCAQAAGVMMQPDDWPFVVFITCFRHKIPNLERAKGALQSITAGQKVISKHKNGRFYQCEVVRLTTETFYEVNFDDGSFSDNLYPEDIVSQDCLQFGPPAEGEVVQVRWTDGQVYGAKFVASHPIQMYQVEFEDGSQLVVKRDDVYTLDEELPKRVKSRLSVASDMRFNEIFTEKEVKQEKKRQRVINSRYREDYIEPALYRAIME
- PROTOCOL NOTES: qHTS Assay for Inhibitors of JMJD2A-Tudor Domain; note: nearly all actives have a fitted effect of over 50% in size
- CONDITION NOTES: AlphaScreen JMJD2A-Tudor / H3K4me3 peptide binding; series mostly up to 114 µM
In all, about 390,000 compounds went through this assay and about 17,000 (4.4%) were called active. Another 8% or so got no clear call; they are omitted. Calls come from the whole dose curve; as a rule, active = well fitted inhibition curve with a large enough effect; inconclusive = small, poorly fitted or top-dose-only effect; inactive = no such curve, though single readings can be large or run the other way. The list comes from a sample in which actives are over-represented; it also holds close analogues and randomly drawn compounds.
Labels: TRUE = active, FALSE = inactive

- COMPOUND: "CCOc1ccc(CNC(=O)c2cccc(Nc3nc4ccccc4n4nnnc34)c2)cc1OC"
  SUBJECT OF TEST: "Lysine-specific demethylase 4A (Homo sapiens) (UniProt O75164)"
  CATEGORY: "FALSE"
- COMPOUND: "CCc1ccc2oc(-c3ccc(C)c(NC(=O)/C=C/c4ccco4)c3)nc2c1"
  SUBJECT OF TEST: "Lysine-specific demethylase 4A (Homo sapiens) (UniProt O75164)"
  CATEGORY: "FALSE"
- COMPOUND: "COc1ccc(CCNc2ncnc3c2cnn3-c2ccc(C)cc2)cc1"
  SUBJECT OF TEST: "Lysine-specific demethylase 4A (Homo sapiens) (UniProt O75164)"
  CATEGORY: "FALSE"
- COMPOUND: "Cc1noc(/C=C/N(C)C)c1S(=O)(=O)N1CCCC(C(=O)Nc2cccc(F)c2)C1 (stereo not given)"
  SUBJECT OF TEST: "Lysine-specific demethylase 4A (Homo sapiens) (UniProt O75164)"
  CATEGORY: "FALSE"
- COMPOUND: "COc1ccc2ncc3c(-c4ccc(C)c(C)c4)nn(CC(=O)NC4CCCC4)c3c2c1"
  SUBJECT OF TEST: "Lysine-specific demethylase 4A (Homo sapiens) (UniProt O75164)"
  CATEGORY: "FALSE"
- COMPOUND: "Cc1ccc(N2C(=O)CC(Nc3cccc4ccccc34)C2=O)cc1 (stereo not given)"
  SUBJECT OF TEST: "Lysine-specific demethylase 4A (Homo sapiens) (UniProt O75164)"
  CATEGORY: "FALSE"
- COMPOUND: "Cc1ccc2c(c1)c1c(c(=O)n(-c3ccccc3)c(=O)n1CC(=O)c1ccc(Cl)cc1)n2C"
  SUBJECT OF TEST: "Lysine-specific demethylase 4A (Homo sapiens) (UniProt O75164)"
  CATEGORY: "FALSE"
- COMPOUND: "CCc1ccc(S(=O)(=O)n2ccnc2)cc1"
  SUBJECT OF TEST: "Lysine-specific demethylase 4A (Homo sapiens) (UniProt O75164)"
  CATEGORY: "FALSE"
- COMPOUND: "CCc1ccccc1N1C(=O)C2C3CC(=O)C(c4ccccc43)C2C1=O (stereo not given)"
  SUBJECT OF TEST: "Lysine-specific demethylase 4A (Homo sapiens) (UniProt O75164)"
  CATEGORY: "FALSE"
- COMPOUND: "Cc1c(CN2CCC(CO)(CCOc3ccccc3)CC2)[nH]c2ccc(Cl)cc12"
  SUBJECT OF TEST: "Lysine-specific demethylase 4A (Homo sapiens) (UniProt O75164)"
  CATEGORY: "TRUE"

----------
- SUBJECT OF TEST: Lysine-specific demethylase 4A (Homo sapiens)
- PROTOCOL NOTES: qHTS Assay for Inhibitors of JMJD2A-Tudor Domain; note: nearly all actives have a fitted effect of over 50% in size
- CONDITION NOTES: AlphaScreen JMJD2A-Tudor / H3K4me3 peptide binding; series mostly up to 114 µM
The campaign covered roughly 390,000 compounds. About 17,000 (4.4%) were called active. Inconclusive results (about 8%) are left out. The call rests on the fitted dose curve; in most records, active means well fitted inhibition curve with a large enough effect; inconclusive means small, poorly fitted or top-dose-only effect; inactive means no such curve, though single readings can be large or run the other way. The list comes from a sample in which actives are over-represented; it also holds close analogues and randomly drawn compounds.
Possible outcomes: Y for active, N for inactive

- COMPOUND: "O=C(CN1CCCCCC1)Nc1ccc(Cl)cc1F"
  CATEGORY: "N"
- COMPOUND: "CCOC(=O)C1CCN(C(=O)CSc2c3c(nc4ccc(Cl)cc24)CCCC3)CC1"
  CATEGORY: "N"
- COMPOUND: "O=C(COc1ccccc1[N+](=O)[O-])N/N=C/c1ccc[nH]1"
  CATEGORY: "N"
- COMPOUND: "COC1=CC(=O)OC(c2ccc(OC)cc2)C1 (configuration not stated)"
  CATEGORY: "N"
- COMPOUND: "Cc1oc2ncnc(N3CCCCC3)c2c1C(=O)N1CCN(c2cccc(Cl)c2)CC1"
  CATEGORY: "N"
- COMPOUND: "O=C(Nc1ccc(Br)cc1)c1ccc(Br)c(S(=O)(=O)NCc2ccccc2)c1"
  CATEGORY: "N"
- COMPOUND: "Cc1ccc(Cl)cc1N1CCN(S(=O)(=O)c2cc3[nH]c(=O)c(=O)[nH]c3cc2C)CC1"
  CATEGORY: "N"
- COMPOUND: "O=C(Cn1cncn1)N/N=C/c1c2ccccc2cc2ccccc12"
  CATEGORY: "N"
- COMPOUND: "COc1ccccc1C(=O)Nc1c(C(=O)Nc2ccc(C)cc2)oc2ccccc12"
  CATEGORY: "N"
- COMPOUND: "CCn1cc2nc(SCc3cccc(F)c3)n(CCc3ccccc3)c(=O)c2n1"
  CATEGORY: "N"
- COMPOUND: "Cc1ccc(/C=N\\n2c(-c3ccccc3)n[nH]c2=S)s1"
  CATEGORY: "Y"
- COMPOUND: "CCC(=O)N1CCc2cc(S(=O)(=O)NC(Cc3ccccc3)C(=O)NCc3ccccc3)ccc21 (configuration not stated)"
  CATEGORY: "N"
- COMPOUND: "O=C(COc1ccccc1)Nc1ccc(F)cc1"
  CATEGORY: "N"
- COMPOUND: "O=C(NCCS(=O)(=O)N1CCN(c2ccc(F)cc2)CC1)c1ccccc1Br"
  CATEGORY: "N"
- COMPOUND: "C[n+]1ccc(/C=C/c2c[nH]c3ccccc23)cc1"
  CATEGORY: "N"
- COMPOUND: "COc1ccc(-c2csc(-c3c(N)c(C(=O)c4ccc(OC)c(OC)c4)n4ccccc34)n2)cc1"
  CATEGORY: "N"
- COMPOUND: "O=C(CN1CCCCCC1)Nc1ccc(Br)cc1[N+](=O)[O-]"
  CATEGORY: "Y"
- COMPOUND: "O=C(CN1CCCCCC1)Nc1ccc(Br)cc1Br"
  CATEGORY: "N"
- COMPOUND: "CCc1n[nH]c(=S)n1/N=C/c1c[nH]c2ccc(Br)cc12"
  CATEGORY: "N"
- COMPOUND: "CCNC(=O)c1cc2n(n1)CCCN(Cc1ccc(C)cc1)C2=O"
  CATEGORY: "N"
- COMPOUND: "COc1ccccc1OCc1nnc(SCC(N)=O)n1-c1ccccc1"
  CATEGORY: "N"
- COMPOUND: "CCc1nnc2c3ccccc3nc(N3CCN(c4ccc(C)cc4C)CC3)n12"
  CATEGORY: "N"
